Each entry below carries its measured AC50, system: 5-hydroxytryptamine receptor 1A (Homo sapiens, UniProt P08908). Further: assay procedure not described here.
Sequence (P08908 whole entry): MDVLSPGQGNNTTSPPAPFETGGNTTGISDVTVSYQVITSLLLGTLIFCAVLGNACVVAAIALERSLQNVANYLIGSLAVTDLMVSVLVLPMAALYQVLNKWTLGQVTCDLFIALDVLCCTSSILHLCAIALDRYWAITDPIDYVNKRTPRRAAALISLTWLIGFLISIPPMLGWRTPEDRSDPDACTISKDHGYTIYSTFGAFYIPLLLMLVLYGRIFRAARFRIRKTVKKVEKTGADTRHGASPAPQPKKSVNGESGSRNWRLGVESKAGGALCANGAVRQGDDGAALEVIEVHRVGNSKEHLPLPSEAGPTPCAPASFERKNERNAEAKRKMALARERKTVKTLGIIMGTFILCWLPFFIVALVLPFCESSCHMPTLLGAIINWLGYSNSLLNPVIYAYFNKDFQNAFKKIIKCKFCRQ

Example entries begin here.
CCOc1ccc(Cc2cc([C@@H]3O[C@H](CO)[C@@H](O)[C@H](O)[C@H]3O)ccc2Cl)cc1
> 10 µM
CC[C@@H]1C(=O)OC[C@@H]1Cc1cncn1C
> 10 µM
CS(=O)(=O)c1ccc(C2=C(c3ccccc3)C(=O)OC2)cc1
> 10 µM

# assay system 5-hydroxytryptamine receptor 1A (Homo sapiens, UniProt P08908): give AC50 of CC(C)Cn1cnc2c(N)nc3ccccc3c21 > 10 µM

# assay system 5-hydroxytryptamine receptor 1A (Homo sapiens, UniProt P08908): give AC50 of CC(Oc1c(Cl)cccc1Cl)C1=NCCN1 (stereo unspecified) 0.29 µM

# assay system 5-hydroxytryptamine receptor 1A (Homo sapiens, UniProt P08908): give AC50 of Cc1nnc2n1-c1ccc(Cl)cc1C(c1ccccc1Cl)=NC2 > 10 µM

###

Biological target: UniProt:P11229
Sequence (P11229 whole entry): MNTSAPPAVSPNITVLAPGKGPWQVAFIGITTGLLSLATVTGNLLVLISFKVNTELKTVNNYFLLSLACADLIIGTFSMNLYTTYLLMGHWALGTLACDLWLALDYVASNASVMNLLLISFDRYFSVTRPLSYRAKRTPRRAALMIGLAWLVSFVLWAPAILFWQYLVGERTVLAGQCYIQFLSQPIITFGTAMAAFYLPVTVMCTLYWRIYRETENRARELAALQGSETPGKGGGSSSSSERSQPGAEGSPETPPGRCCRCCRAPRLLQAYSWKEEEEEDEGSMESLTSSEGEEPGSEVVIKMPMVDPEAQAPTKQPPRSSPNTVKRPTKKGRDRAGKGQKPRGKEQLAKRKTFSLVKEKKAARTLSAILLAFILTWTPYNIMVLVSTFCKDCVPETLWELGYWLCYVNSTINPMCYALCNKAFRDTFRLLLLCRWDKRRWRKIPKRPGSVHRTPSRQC
Format: functional
The molecules listed here are annotated with their AC50.

CC[C@@H](C(N)=O)N1CCCC1=O
> 30 µM
NCC(=O)CCC(=O)O
> 30 µM
CC(C)(C)C(=O)Oc1ccc(S(=O)(=O)Nc2ccccc2C(=O)NCC(=O)O)cc1
> 30 µM
Cc1cc(C)c(NC(=O)CN(CC(=O)O)CC(=O)O)c(C)c1Br
> 30 µM

Continue with the next molecule.
# assay system UniProt:P11229: give AC50 of COc1ccccc1N1CCN(CC(O)COc2cccc3ccccc23)CC1 (stereo not given) > 30 µM

###

Biological target: Gamma-aminobutyric acid receptor subunit alpha-1 (Rattus norvegicus, UniProt P62813); further: assay procedure not described here
Sequence (P62813 whole entry): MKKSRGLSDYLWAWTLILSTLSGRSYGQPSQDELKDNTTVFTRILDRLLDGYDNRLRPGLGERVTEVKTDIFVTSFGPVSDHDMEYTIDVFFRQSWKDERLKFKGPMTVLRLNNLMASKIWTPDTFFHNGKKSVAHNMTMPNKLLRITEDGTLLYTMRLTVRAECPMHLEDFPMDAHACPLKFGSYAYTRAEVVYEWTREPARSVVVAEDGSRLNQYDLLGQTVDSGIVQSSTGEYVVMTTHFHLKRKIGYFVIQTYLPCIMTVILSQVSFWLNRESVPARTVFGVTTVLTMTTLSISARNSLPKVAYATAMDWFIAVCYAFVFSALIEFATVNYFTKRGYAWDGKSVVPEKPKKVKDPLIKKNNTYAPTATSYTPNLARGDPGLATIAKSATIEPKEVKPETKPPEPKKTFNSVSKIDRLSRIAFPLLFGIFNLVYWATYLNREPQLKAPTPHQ
The compounds listed here are annotated with their AC50.

Example entries begin here.
CC(C)(C)C(=O)OCOC(=O)[C@@H]1N2C(=O)[C@@H](NC(=O)[C@H](N)c3ccccc3)[C@H]2SC1(C)C
> 30 µM
COCCCN1CCC(NC(=O)c2cc(Cl)c(N)c3c2OCC3)CC1 [PRUCALOPRIDE]
> 30 µM
CO[C@H]1C[C@@H]2CC[C@@H](C)[C@@](O)(O2)C(=O)C(=O)N2CCCC[C@H]2C(=O)O[C@H]([C@H](C)C[C@@H]2CC[C@@H](O)[C@H](OC)C2)CC(=O)[C@H](C)/C=C(\C)[C@@H](O)[C@@H](OC)C(=O)[C@H](C)C[C@H](C)/C=C/C=C/C=C/1C
> 30 µM
CC[C@H]1CN2CCc3cc(OC)c(OC)cc3[C@@H]2C[C@@H]1C[C@H]1NCCc2cc(OC)c(OC)cc21
> 30 µM
CN(C)[C@@H](c1cccc(O)c1)[C@H]1CCCC[C@H]1O
> 30 µM

Please look at this compound and report its AC50: CCN1CCCC1CNC(=O)c1cc(S(N)(=O)=O)ccc1OC (configuration not stated) [SULPIRIDE] > 30 µM

Please look at this compound and report its AC50: Nc1nc2nc[nH]c2c(=S)[nH]1 > 30 µM

Please look at this compound and report its AC50: COc1ccc(C(=O)Nc2ccccc2CCC2CCCCN2C)cc1 (configuration not stated) [ENCAINIDE] > 30 µM

Please look at this compound and report its AC50: COc1ccccc1N1CCN(CC(O)COc2cccc3ccccc23)CC1 (configuration not stated) > 30 µM

Please look at this compound and report its AC50: Cc1oc(=O)oc1CN1CCN(c2cc3c(cc2F)c(=O)c(C(=O)O)c2n3C(C)S2)CC1 (configuration not stated) > 30 µM

Please look at this compound and report its AC50: C[S+](CC[C@H](N)C(=O)[O-])C[C@H]1O[C@@H](n2cnc3c(N)ncnc32)[C@H](O)[C@@H]1O (some centres not stated) > 30 µM

Please look at this compound and report its AC50: CC(C)(C)CC(C)(C)c1ccc(O)c(Cc2ccc(Cl)cc2Cl)c1 > 30 µM

Please look at this compound and report its AC50: O=C(Cc1ccc(-c2ccccc2)cc1)Nc1ccccn1 [DIFENPIRAMIDE] > 30 µM

Please look at this compound and report its AC50: CN(C)S(=O)(=O)c1ccc2c(c1)N(CCCN1CCC(CCO)CC1)c1ccccc1S2 > 30 µM

Please look at this compound and report its AC50: CC(C)COC(=O)OCN1C(=O)CN(CCN2CC(=O)N(COC(=O)OCC(C)C)C(=O)C2)CC1=O > 30 µM

Please look at this compound and report its AC50: O=C(Nc1ccc(Cl)cc1)Nc1ccc(Cl)c(Cl)c1 > 30 µM

Please look at this compound and report its AC50: CC(=O)OCC(=O)[C@@]1(O)CC[C@H]2[C@@H]3CCC4=CC(=O)C=C[C@]4(C)[C@@]3(Cl)[C@@H](Cl)C[C@@]21C [DICHLORISONE ACETATE] > 30 µM

Please look at this compound and report its AC50: CCCCCNC(=N)N/N=C/c1c[nH]c2ccc(OC)cc12 > 30 µM

###

The compounds listed here are annotated with their AC50.
Target: Delta-type opioid receptor (Homo sapiens); further: assay procedure not described here
Sequence (P41143 whole entry): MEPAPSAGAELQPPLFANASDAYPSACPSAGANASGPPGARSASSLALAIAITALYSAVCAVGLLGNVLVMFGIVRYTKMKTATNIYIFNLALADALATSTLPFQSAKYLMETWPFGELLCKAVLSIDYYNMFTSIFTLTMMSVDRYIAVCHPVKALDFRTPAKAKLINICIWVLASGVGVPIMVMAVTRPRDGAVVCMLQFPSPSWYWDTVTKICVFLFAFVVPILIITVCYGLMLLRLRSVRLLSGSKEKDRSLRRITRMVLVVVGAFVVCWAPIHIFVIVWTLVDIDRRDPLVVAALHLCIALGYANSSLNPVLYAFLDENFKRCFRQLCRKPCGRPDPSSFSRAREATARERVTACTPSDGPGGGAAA

Example entries begin here.
CO[C@@H]1[C@@H](O[C@@H]2O[C@H](C)[C@@H](O[C@H]3C[C@@](C)(O)[C@@H](OC(=O)CC(C)C)[C@H](C)O3)[C@H](N(C)C)[C@H]2O)[C@@H](CC=O)C[C@@H](C)[C@@H](O)/C=C/C=C/C[C@@H](C)OC(=O)C[C@H]1OC(C)=O
> 30 µM
CC(Oc1c(Cl)cccc1Cl)C1=NCCN1 (stereo not drawn)
> 30 µM

Continue with the next compound.
# assay system Delta-type opioid receptor (Homo sapiens): give AC50 of COc1ccccc1N1CCN(CC(O)COc2cccc3ccccc23)CC1 (stereo not drawn) 12 µM

###

Molecular target: 5-hydroxytryptamine receptor 2B (Homo sapiens); further: assay procedure not described here
Sequence (P41595 whole entry): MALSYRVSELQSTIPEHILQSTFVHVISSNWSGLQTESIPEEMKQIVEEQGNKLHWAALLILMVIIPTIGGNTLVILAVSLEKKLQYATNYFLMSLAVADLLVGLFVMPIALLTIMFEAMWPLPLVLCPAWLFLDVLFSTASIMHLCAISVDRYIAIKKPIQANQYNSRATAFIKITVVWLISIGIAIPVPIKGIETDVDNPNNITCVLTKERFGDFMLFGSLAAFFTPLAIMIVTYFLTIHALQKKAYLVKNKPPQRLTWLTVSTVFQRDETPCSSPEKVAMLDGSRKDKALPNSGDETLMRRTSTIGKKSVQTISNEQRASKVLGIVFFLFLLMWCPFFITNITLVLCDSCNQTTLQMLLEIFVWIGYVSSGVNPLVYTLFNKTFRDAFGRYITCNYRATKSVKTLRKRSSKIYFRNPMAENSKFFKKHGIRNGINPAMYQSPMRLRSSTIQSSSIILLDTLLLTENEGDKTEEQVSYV
Assay type: functional, cell-based
parameter_measured: AC50

Example entries begin here.
CO/N=C(\C(=O)N[C@@H]1C(=O)N2C(C(=O)O)=C(CSc3nnnn3C)CS[C@H]12)c1csc(N)n1 [CEFMENOXIME]
> 30 µM
CC(C)OC(=O)CCC/C=C\C[C@@H]1[C@@H](CC[C@@H](O)CCc2ccccc2)[C@H](O)C[C@@H]1O [LATANOPROST]
> 30 µM
CN(C)CC/C=C1\c2ccccc2CSc2ccccc21 [DOTHIEPIN]
> 30 µM
CN1C(=O)CCS(=O)(=O)C1c1ccc(Cl)cc1 (stereo not given) [CHLORMEZANONE]
> 10 µM
CCC(C)n1ncn(-c2ccc(N3CCN(c4ccc(OCC5COC(Cn6cncn6)(c6ccc(Cl)cc6Cl)O5)cc4)CC3)cc2)c1=O (stereo not given) [ITRACONAZOLE]
> 30 µM
CCOc1ccccc1OCC1CNCCO1 (stereo not given) [VILOXAZINE]
> 10 µM
CCOC(=O)OC(C)OC1=C(C(=O)Nc2ccccn2)N(C)S(=O)(=O)c2ccccc21 (stereo not given) [AMPIROXICAM]
> 30 µM
CC[C@H]1OC(=O)[C@H](C)[C@@H](O[C@H]2C[C@@](C)(OC)[C@@H](O)[C@H](C)O2)[C@H](C)[C@@H](O[C@@H]2O[C@H](C)C[C@H](N(C)C)[C@H]2O)[C@](C)(O)C[C@@H](C)CN(C)[C@H](C)[C@@H](O)[C@]1(C)O [AZITHROMYCIN]
> 10 µM
NCC(CC(=O)O)c1ccc(Cl)cc1 (stereo not given) [BACLOFEN]
> 30 µM
Cc1c(C(=O)NN2CCCCC2)nn(-c2ccc(Cl)cc2Cl)c1-c1ccc(Cl)cc1 [RIMONABANT]
> 30 µM

Please look at this compound and report its AC50: COc1ccccc1N1CCN(CC(O)COc2cccc3ccccc23)CC1 (stereo not given) [NAFTOPIDIL] > 30 µM

Please look at this compound and report its AC50: Cc1cc(O)c(C(=O)N[C@@H](C(=O)N[C@@H]2C(=O)N3C(C(=O)O)=C(CSc4nnnn4C)CS[C@H]23)c2ccc(O)cc2)cn1 [CEFPIRAMIDE] > 30 µM

Please look at this compound and report its AC50: CC(=O)O[C@H]1C[C@@H]2CC[C@@H]3[C@H](CC[C@@]4(C)[C@H]3C[C@H]([N+]3(C)CCCCC3)[C@@H]4OC(C)=O)[C@@]2(C)C[C@@H]1N1CCCCC1 [VECURONIUM] > 30 µM

Please look at this compound and report its AC50: Cc1nnc2n1-c1ccc(Cl)cc1C(c1ccccc1Cl)=NC2 [TRIAZOLAM] > 10 µM

Please look at this compound and report its AC50: C[C@]1(O)CC[C@H]2[C@@H]3CCC4=CC(=O)CC[C@]4(C)[C@@]3(F)[C@@H](O)C[C@@]21C [FLUOXYMESTERONE] > 10 µM

###

Each entry below carries its measured AC50, system: Muscarinic acetylcholine receptor M3 (Homo sapiens, UniProt P20309). Further: assay procedure not described here.
Sequence (P20309 whole entry): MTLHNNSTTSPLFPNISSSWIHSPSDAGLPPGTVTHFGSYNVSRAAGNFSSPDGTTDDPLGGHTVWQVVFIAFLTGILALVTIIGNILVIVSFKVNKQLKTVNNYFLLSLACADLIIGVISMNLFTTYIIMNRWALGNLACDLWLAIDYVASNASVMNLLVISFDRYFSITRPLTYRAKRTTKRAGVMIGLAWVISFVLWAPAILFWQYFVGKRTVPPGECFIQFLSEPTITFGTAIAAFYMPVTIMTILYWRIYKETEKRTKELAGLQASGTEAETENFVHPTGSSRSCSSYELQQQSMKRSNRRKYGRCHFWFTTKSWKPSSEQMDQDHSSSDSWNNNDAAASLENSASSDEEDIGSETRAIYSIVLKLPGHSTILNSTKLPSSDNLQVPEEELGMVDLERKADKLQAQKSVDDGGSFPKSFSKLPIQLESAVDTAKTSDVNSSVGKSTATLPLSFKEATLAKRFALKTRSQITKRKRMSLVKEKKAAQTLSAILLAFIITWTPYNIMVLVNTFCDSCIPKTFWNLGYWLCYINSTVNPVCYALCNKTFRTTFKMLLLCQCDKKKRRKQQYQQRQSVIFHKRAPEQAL

Example entries begin here.
CCCCN1C[C@H](O)[C@@H](O)[C@H](O)[C@H]1CO
> 30 µM
COC(=O)C1=C(C)NC(C)=C(C(=O)OC2CCCN(Cc3ccccc3)C2)C1c1cccc([N+](=O)[O-])c1 (stereo not given)
> 30 µM
C=CCN1CCCC1CNC(=O)c1cc(S(N)(=O)=O)cc(OC)c1OC (stereo not given) [VERALIPRIDE]
> 30 µM
Cc1cc(C)c(NC(=O)CN(CC(=O)O)CC(=O)O)c(C)c1Br
> 30 µM

# assay system Muscarinic acetylcholine receptor M3 (Homo sapiens, UniProt P20309): give AC50 of O=C(Cc1ccc(-c2ccccc2)cc1)Nc1ccccn1 [DIFENPIRAMIDE] > 30 µM
